B1: Pistol ribozyme (parent)
chain: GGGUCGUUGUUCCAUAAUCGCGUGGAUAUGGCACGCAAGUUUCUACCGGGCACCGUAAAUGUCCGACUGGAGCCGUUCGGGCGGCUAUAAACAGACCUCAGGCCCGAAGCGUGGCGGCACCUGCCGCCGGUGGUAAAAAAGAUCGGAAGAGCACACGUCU

Variants of: B1
runDescription: aptazyme ON/OFF ratio, guanine; higher = stronger switching; co-transcriptional cleavage with and without guanine
readout: aptazyme ON/OFF ratio

Use the examples below as a reference point.
[
  {
    "alteration": "U7G U8A U10C C12U",
    "aptazyme ON/OFF ratio": 2.18
  },
  {
    "alteration": "U7A U8C G9U U10A",
    "aptazyme ON/OFF ratio": 1.4
  },
  {
    "alteration": "U7G U8G G9C U11G C12G C13A",
    "aptazyme ON/OFF ratio": 1.17
  },
  {
    "alteration": "U7G U8A G9U U11C C12A",
    "aptazyme ON/OFF ratio": 1.16
  },
  {
    "alteration": "U7A U8A G9U U10A U11C C12G C13A",
    "aptazyme ON/OFF ratio": 1.18
  },
  {
    "alteration": "U7A U8G U10A C12G C13A",
    "aptazyme ON/OFF ratio": 1.24
  },
  {
    "alteration": "U7G G9U U11A C13A",
    "aptazyme ON/OFF ratio": 1.34
  },
  {
    "alteration": "G9U U10G U11G C13G",
    "aptazyme ON/OFF ratio": 1.19
  }
]

Switching to the query record.
Ask: // returns reported aptazyme ON/OFF ratio for input U7G G9A U10G U11G C12G C13G
Result: 1.16
